Target: HLA B*3501 (human)
Experiment: competition vs radiolabeled probe peptide, purified HLA
quantity-measured: IC50 (µM)
Respond with the bare value in µM.

Example cases with answers are listed next.
MMATIGIAL (modifications not checked)	1.12
TPPGSRDPF (modifications not checked)	0.161

Please report the recorded IC50 for DPASIAARGY (modifications not checked) .
5.62
